B1: tRNA (parent)
chain: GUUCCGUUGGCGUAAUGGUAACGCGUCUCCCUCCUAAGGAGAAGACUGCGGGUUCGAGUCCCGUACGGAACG

Variants of: B1
procedure-summary: yeast fitness relative to wild type (ratio to wild type); higher = fitter; tRNA-Arg(CCU), competitive growth, 37 C, YPD
This sample holds only a part of the variants without activity.

mutation-id: A45U G48C
comparator: =
yeast fitness: 0.857

mutation-id: U54A U59C C61G
comparator: ≤
yeast fitness: 0.5

mutation-id: C5U U35A G48C C61U
comparator: =
yeast fitness: 0.57

mutation-id: U19A U32A A36G
comparator: ≤
yeast fitness: 0.5

mutation-id: A37C A43C A65C
comparator: =
yeast fitness: 0.612

mutation-id: C30U G38C A65G
comparator: =
yeast fitness: 0.53

mutation-id: G6A C22U A42C U54A
comparator: ≤
yeast fitness: 0.5

mutation-id: A36G C61G
comparator: =
yeast fitness: 0.659

The reported measurements were obtained from the RNAGym collection of RNA variant scans (doi:10.1126/science.aae0568).
